The origin of these recorded values is the Human Domainome abundance scans (Beltran et al. 2025).

Could you please report measured abundance fitness for the items listed next?
B1: POU domain, class 3, transcription factor 1, residues 247 to 324; numbered along this chain, Q03052 (parent)
chain: EDAPSSDDLEQFAKQFKQRRIKLGFTQADVGLALGTLYGNVFSQTTICRFEALQLSFKNMCKLKPLLNKWLEETDSSS

- Variants of: B1
- Assay Notes: abundance fitness (aPCA) (normalised: wild type 0, dead -1); higher = more abundant; growth selection in yeast, the domain comes from the species named
- Applied Conditions: Homo sapiens
Write the number on its own, no unit after it.

Problem: Given the entry L34C , report its measured abundance fitness.
Solution: -0.397

Problem: Entry to check: M60V
Solution: -0.701

Problem: Entry to check: N40P
Solution: -0.276

Problem: Entry to check: V41D
Solution: -0.141

Problem: Entry to check: L67D
Solution: -0.167

Problem: Entry to check: L66A
Solution: -0.226

Problem: Entry to check: A33F
Solution: -0.105

Problem: Entry to check: L34M
Solution: -0.158

Problem: Entry to check: L32Q
Solution: 0.148

Problem: Entry to check: E73P
Solution: -0.378

Problem: Entry to check: D75R
Solution: -0.077

Problem: Entry to check: Q54W
Solution: -0.669

Problem: Entry to check: F57I
Solution: -0.273

Problem: Entry to check: L34S
Solution: -0.859

Problem: Entry to check: S78M
Solution: -0.256

Problem: Entry to check: G24M
Solution: -0.78

Problem: Entry to check: A52I
Solution: -0.56

Problem: Entry to check: E73V
Solution: -0.128

Problem: Entry to check: T45G
Solution: -0.076

Problem: Entry to check: F50S
Solution: -0.802

Problem: Entry to check: D75W
Solution: -0.262

Problem: Entry to check: Q44A
Solution: 0.119

Problem: Entry to check: F42L
Solution: -0.043

Problem: Entry to check: S56C
Solution: -0.439
